Target: HDAC3 (Homo sapiens)
Sequence (O15379 whole entry, species assumed): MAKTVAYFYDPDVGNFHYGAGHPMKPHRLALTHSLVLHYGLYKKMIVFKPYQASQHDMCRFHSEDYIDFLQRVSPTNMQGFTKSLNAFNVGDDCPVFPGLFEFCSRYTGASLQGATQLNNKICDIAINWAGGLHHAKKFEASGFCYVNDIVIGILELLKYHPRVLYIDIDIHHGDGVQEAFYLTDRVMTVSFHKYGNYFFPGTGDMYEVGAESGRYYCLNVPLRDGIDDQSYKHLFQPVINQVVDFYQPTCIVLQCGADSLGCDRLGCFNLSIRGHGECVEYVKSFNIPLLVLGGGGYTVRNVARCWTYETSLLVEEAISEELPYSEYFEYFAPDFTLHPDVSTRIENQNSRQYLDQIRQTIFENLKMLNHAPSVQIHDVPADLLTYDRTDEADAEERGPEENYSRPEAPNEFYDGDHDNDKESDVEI
Sequence (Q9Y618 395-489 partner limits assumed, species assumed): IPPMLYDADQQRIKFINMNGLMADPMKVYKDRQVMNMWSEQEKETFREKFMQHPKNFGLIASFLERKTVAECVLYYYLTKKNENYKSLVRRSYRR
Assay: HDAC biochemical activity measurement (fluorescent substrate deacetylation);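 also: fluorogenic acetyl-lysine substrate (20 µM) deacetylated by HDAC3, then developer added for 15 min at room temperature, release of fluorophore read at excitation 360 nm, emission 460 nm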
value_kind: IC50
Please state the number and follow it with the unit.

Check out these entries, answers already filled in.
C/C=C1\NC(=O)c2cccc(n2)CCNC(=O)C[C@@H](/C=C/CCSC(C)=O)OC(=O)[C@H](C(C)C)NC1=O: 46 nM
C/C=C1\NC(=O)c2cc(SC)cc(n2)CNC(=O)C[C@@H](/C=C/CCSC(=O)CCCCCC)OC(=O)[C@H](C(C)C)NC1=O: 23 nM
C/C=C1\NC(=O)c2ccc(F)c(n2)CNC(=O)C[C@@H](/C=C/CCSC(=O)CCCCCCC)OC(=O)[C@H](Cc2ccccc2)NC1=O: 34 nM
C/C=C1\NC(=O)c2cccc(n2)CNC(=O)C[C@@H](/C=C/CCSC(C)=O)OC(=O)[C@H](CC)NC1=O: 41 nM
C/C=C1\NC(=O)c2nc(ccc2F)CNC(=O)C[C@@H](/C=C/CCSC(C)=O)OC(=O)[C@H](C)NC1=O: 39 nM
C/C=C1\NC(=O)c2cc(F)cc(n2)CNC(=O)C[C@@H](/C=C/CCSC(C)=O)OC(=O)[C@H](Cc2ccc(O)cc2)NC1=O: 53 nM
C/C=C1\NC(=O)c2cccc(n2)CCNC(=O)C[C@@H](/C=C/CCS)OC(=O)[C@H](C(C)C)NC1=O: 28 nM
C/C=C1\NC(=O)c2cc(SC)cc(n2)CNC(=O)C[C@@H](/C=C/CCSC=O)OC(=O)[C@H](C(C)C)NC1=O: 16 nM

Summary line: `C/C=C1\NC(=O)c2nc(ccc2SC)CNC(=O)C[C@@H](/C=C/CCSC(=O)CCCCCCC)OC(=O)[C@H](CC)NC1=O` , HDAC3 (Homo sapiens), reported IC50 = 18 nM

Summary line: `C/C=C1\NC(=O)c2nc(ccc2F)CNC(=O)C[C@@H](/C=C/CCSC=O)OC(=O)[C@H](C(C)C)NC1=O` , HDAC3 (Homo sapiens), reported IC50 = 51 nM

Summary line: `C/C=C1\NC(=O)c2ccc(F)c(n2)CNC(=O)C[C@@H](/C=C/CCSC(C)=O)OC(=O)[C@H](CCCCNC(=O)OCC2c3ccccc3-c3ccccc32)NC1=O` , HDAC3 (Homo sapiens), reported IC50 = 26 nM

Summary line: `C/C=C1\NC(=O)c2nc(ccc2F)CNC(=O)C[C@@H](/C=C/CCSC(=O)CCCCCCC)OC(=O)[C@H](C)NC1=O` , HDAC3 (Homo sapiens), reported IC50 = 16 nM

Summary line: `C/C=C1\NC(=O)c2cc(F)cc(n2)CCNC(=O)C[C@@H](/C=C/CCSC(C)=O)OC(=O)[C@H](C(C)C)NC1=O` , HDAC3 (Homo sapiens), reported IC50 = 43 nM

Summary line: `C/C=C1\NC(=O)c2nccc(n2)CNC(=O)C[C@@H](/C=C/CCSC(C)=O)OC(=O)[C@H](C)NC1=O` , HDAC3 (Homo sapiens), reported IC50 = 43 nM

Summary line: `C/C=C1\NC(=O)c2cc(SCCC)cc(n2)CNC(=O)C[C@@H](/C=C/CCSC(=O)CCCCCCC)OC(=O)[C@H](CC)NC1=O` , HDAC3 (Homo sapiens), reported IC50 = 11 nM

Source: patent US10065990B2
